ASSAY_REMARKS: In vivo test of Drug 2 compositions, gelatin capsule, plasma Drug 2
ASSAY_CONDITIONS: fasted male beagle dogs, one gelatin capsule, 40 mg Drug 2, plasma
MEASUREMENT_LABEL: AUC(0-inf) (ng·h/mL)
Give the number; ng·h/mL is assumed, so skip it.

Please report the recorded AUC(0-inf) for O=C1Cc2cc(CCN3CCN(c4nsc5ccccc45)CC3)c(Cl)cc2N1 [Control 2B] .
1050

====

ASSAY_REMARKS: In vivo test of Drug 1 compositions, oral powder for constitution, plasma Drug 1
ASSAY_CONDITIONS: male, beagle, dog, plasma, po, 10 mgA/kg, male beagle dogs, oral gavage, 10 mgA/kg Drug 1, plasma; read-out: AUC(0-inf)
MEASUREMENT_LABEL: AUC(0-inf) (ng·h/mL)
Give the number; ng·h/mL is assumed, so skip it.

Please report the recorded AUC(0-inf) for NC(=O)N(O)C1C=C(c2cccc(Oc3ccc(F)cc3)c2)CC1 (single isomer, unassigned; (+)) [Control 1C] .
11100
